Target: T1, Roquin-1 zinc finger (Znf, CCCH) (UniProt Q4VGL6 411-454)
T1 chain: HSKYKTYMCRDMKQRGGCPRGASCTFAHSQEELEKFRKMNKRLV
Test: ITC; Zn2+; n=0.48; ITC at room temperature, RNA titrated into 10-40 uM protein; buffer 20 mM Tris pH 7.0, 150 mM NaCl, 25 uM ZnCl2, 2 mM TCEP, 0.02% azide (stated for Znf); NMR HSQC 50 uM protein, RT, 10% D2O
Details: protein: recombinant; tags: His6-GST removed by TEV; chain copies: 2; single-stranded
assay endpoint: pKd
// pKd is dimensionless: -log10 of concentration (M)

**Q:** For UUUUAAGCGUAUUUU (ssRNA) [LBE mutant (GCG)] , what is its reported pKd?
**A:** 4.67
